Entries annotated with measured pKi
- Target system: human recombinant GABA A receptor containing the alpha2, beta2, and gamma3 subunits (Homo sapiens, UniProt P47869+Q99928)
- Assay details: Radioligand competition binding assay with [3H]Ro-15-1788 (Flumazenil);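 note: membranes from HEK cells expressing the receptor, incubated with radioligand to equilibrium, filter-bound radioactivity counted, Ki reported as geometric mean of replicate runs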
Note: pKi values are expressed as the negative base-10 logarithm of concentration in M.

The following compounds have reported results that may help.
CCn1cnc2c(-c3ccc(OC)c(-c4ccc(S(=O)(=O)CC)cc4OC)c3)cnnc21 [Example 46]	5.76
CCCn1cnc2c(-c3ccc(F)c(-c4ccc(S(=O)(=O)CC)cc4)c3)cnnc21 [Example 30]	6.92
COc1cc(S(=O)(=O)C(C)C)ccc1-c1cc(-c2cnnc3c2ncn3C2CC2)ccc1F [Example 23]	7.39

Entry under test: NS(=O)(=O)c1ccc(-c2cc(-c3cnnc4c3ncn4C3CC3)ccc2F)cc1 [Example 20] . Its pKi was 7.72

Entry under test: CCS(=O)(=O)c1ccc(-c2cc(-c3cnnc4c3ncn4C(C)C)ccc2F)cc1 [Example 31] . Its pKi was 7.62

Origin of the recorded values: patent US8952008B2
